Every entry's value here was drawn from patent US20240182456A1.

test method notes: in vivo
assay conditions: male, C57BL/6, mouse, in vivo, iv, 1 mg/kg
Description: Blood concentration versus time profiles were obtained from 2 groups of 3 male mice. […] Bioanalysis: An aliquot of 10 μL of blood sample and matrix calibration standards were added to a 96-well plate. […] Samples were analyzed and quantified by LC-MS/MS using the conditions outlined below. […]
assay endpoint: half-life (h)

compound="Cc1nc(CN2CCC(c3cccc4c3O[C@@](C)(c3ccc(Cl)cc3F)O4)CC2)n(C[C@@H]2CCO2)c1C(=O)O [Compound 3]" units_label=h numeric_readout=1.28
compound="C[C@]1(c2ccc(Cl)cc2F)Oc2cccc(C3CCN(Cc4nc(C(F)(F)F)c(/C=C/C(=O)O)n4C[C@@H]4CCO4)CC3)c2O1 [Compound 8]" units_label=h numeric_readout=3.02
compound="C[C@]1(c2ccc(Cl)cc2F)Oc2cccc(C3CCN(Cc4nc5ccc(C(=O)O)cc5n4C[C@@H]4CCO4)CC3)c2O1 [compound 1, reference compound]" units_label=h numeric_readout=1.25
